System: phosphomevalonate kinase (Streptococcus pneumoniae D39)
assay.method.text: phosphomevalonate kinase enzyme inhibition – biochemical, mevalonate pathway, pilot trial included, primary screen (AID 539);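 also: 0% = full reaction with DMSO carrier and 100% = background rate without enzyme reaction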
reported.conditions: purified PMK, PK/LDH-coupled NADH absorbance 340 nm; at 10 µM; stronger effect = higher value
Hit rate of the full screen: of about 65,000 compounds, about 320 (0.49%) were called active. What follows is part of a selection rich in actives, with near analogues and random picks from the rest.
Decide by inhibition: equal to or exceeding 4% means class 1, less means class 0.

[
  {
    "compound": "O=C(Nc1ccccc1C(F)(F)F)c1cc(-c2ccc(O)cc2)on1",
    "category": "class 1"
  },
  {
    "compound": "O=C(O)CCN1C(=O)CC2(CCCCC2)C1=O",
    "category": "class 1"
  },
  {
    "compound": "COc1ccccc1CNC(=O)Cn1cc2c(n1)CCCC2",
    "category": "class 0"
  },
  {
    "compound": "COc1ccccc1N1CCN(c2nc3ccccc3n3nnnc23)CC1",
    "category": "class 1"
  },
  {
    "compound": "COc1ccccc1CNC(=O)C1CCN(S(C)(=O)=O)CC1",
    "category": "class 0"
  }
]

We now examine a further compound.
Quick check: does COc1ccc(CCn2nnnc2C(c2ccccc2)N2CCN(C)CC2)cc1OC (configuration not stated) have inhibition greater than or equal to 4%? class 1
